Target: T1, human TMEM106B (human, UniProt Q9NUM4 2-274)
T1 construct: Full-length, on transiently transfected HEK293 cells, or natively expressed on HeLa, U251 and A549 cells; also called huTMEM106B; huTMEM
Test: FACS HeLa;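 also: flow cytometry of cells incubated with hybridoma supernatant or purified antibody at 10 µg/ml for 1 h on ice, propidium iodide–positive dead cells gated out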
valueType: MFI

{"columns": ["binder", "result"],
 "data": [
  ["anti-TMEM106B antibody TM-21 (antibody, V domains shown) VH: EVQLVESGGGLVKPGGSLKLSCAASGFTFSNYAMSWVRETPEKRLEWVAFISDGGGYIYYADNVKDRFTISRDNAKNNLYLQMRHLKSEDTAMYYCARDGGTGFTYWGQGTLVTVSV VL: DIVMTQAAFSNPVTLGTSASISCRSSKSLLHSNGITYLFWYLQKPGQSPQLLIYQMSNLASGVPDRFSSSGSGTDFTLRISRVEAEDVGVYYCVQNLELPYTFGGGTKLEIK", 1200],
  ["anti-TMEM106B antibody TM-7 (antibody, V domains shown) VH: EVQLQQSGPVLVKPGPPVKISCKASGFTFTDYYIHWVKLSHGKSLEWIGLVYPYNGDTDYNQKFKGKATLTVDTSSSTAYMELNSLTSEDSAVYYCARTYYANSPDYWGQGTTVTVSS VL: DIVMTQSPSSLSVSAGEKVTMSCKSSQSLLNSGNQRNYLAWYQQKPGQPPKLLIYGASTRESGVPDRFTGSGSGTDFTLTISNVQAEDLAVYYCQNDHSYPLTFGAGTKLELK", 1070],
  ["anti-TMEM106B antibody TM-15 (antibody, V domains shown, mouse IgG from hybridoma) VH: QVQLQQPGAEFVRPGASVKLSCKASGYTFTNYWITWVKQRPGHGLEWIGDIYPGSGNSNYNESFKRKATLTVDTSSSTAYMHLSSQTSEDSAVYFCARKAYGGFPYWGQGTLVTVSA VL: DIQMTQSPASLSVSVGETVTITCRVSENIYNNLAWYQQKQEKSPQLLVFAATNLADGVPSRFSGSGSGTQFSLKINSLQSEDFGTYYCQHFWDTPFTFGSGTKLEIK", 660],
  ["anti-TMEM106B antibody TM-35 (antibody, V domains shown) VH: QVQLQQSGPELVRPGTSVKISCKAPGYTFTRHWMQWVRQRPGQGLEWIGEILPGSNNIYYNEKVKGKATLTVDTSSSTSYMQLSSLTSEDSAVYFCARSLYDYDGVFAYWGQGTLVTVSA VL: DVLMTQIPLSLPVSLGDQASISCRSSQSIVHRNGNTYLEWYLQKPGQSPKLLIYKVSNRFSGVPDRFSGSGSGTDFTLKISRVEAEDLGVYYCFQGSHVPYTFGGGTKLEIK", 241],
  ["anti-TMEM106B antibody TM-48 (antibody, V domains shown) VH: QVQLQQSGPELVKPGASVKLSCKASGYTFTSYDINWVKQRPGQGLEWIGWIYPRDGNTQYIEKLKGKATLTVDTSSSTAYMELHSLTSEDSAVYFCARWIFYAMDYWGQGTSVTVSS VL: DVLMTQTPLSLPVSLGNQASISCRSSQSIVHGNGNTYLEWYLQKPGQSPKLLIYKVSNRFSGVPDRFSGSGSGTDFTLKISRVEAEDLGVYYCFQGSHLPYTFGGGTKLEIK", 219],
  ["anti-TMEM106B antibody TM-10 (antibody, V domains shown) VH: QVQLQQSGAELVKPGASVKISCKGSGYAFSSYWMNWVKQRPGKGLEWIGQIYPGDGDTNYNGKFKGKATLTADKSSTTAYIHLSSLTSEDSAVYFCARWGHYDEAMDDWGQGTSVTVSS VL: DVVMTQTPLSLPVSLGDQASISCRSSQSLVHSNGKTYLHWYVQKPGQSPKLLIYKISNRFSGVPDRFSGSGSGTDFTLKISRVEAEDLGVYFCSQITHVPWTFGGGTKLESK", 596],
  ["anti-TMEM106B antibody TM-50 (antibody, V domains shown, mouse IgG from hybridoma) VH: QVQLKESGPVLVAPSQSLSITCTVSGFSLTNYGVHWVRQPPGKGLEWLGVIWAGGNTNYNSALMSRLSISKDNSKSQVFLKMNSLQTDDTAMYYCAKEAKLLRSYAMDYWGQGTLVTVSA VL: DVQMTQTTSSLSASLGDRVTISCRASQDINNYLYWYQQKPDGTVKLLIYYTSMLHSGVPSRFSGSGSGTDYSLTISNLEQEDIATYFCQQGSTLMYTFGGGTKLEIK", 159],
  ["anti-TMEM106B antibody TM-22 (antibody, V domains shown) VH: QVQLQQSGPELVKPGASVKISCKASGYRFTSYYIHWVKQRPGQGLEWIGWIYPGNGITNYNEKFKGKATLTADTSSSTAYMQLSSLTSEDSAVYYCASPYYGIRNCYFDVWGTGTTVTVSS VL: DVLMTQTPLSLPVSLGDHASISCRSGQSIVHSNGNTYLEWYLQKPGQSPKLLIYKVSNRFSGVPDRFSGSGSGTDFTLKISRVEAEDLGIYYCFQGSHVPWTFGGGTKLEIK", 408],
  ["anti-TMEM106B antibody TM-5 (antibody, V domains shown) VH: QVQLQQSGTELARPGASVKVSCKASGYIFTTYGITWVKQRGGQGLEWIGEIYPRSDNTYYNEKFKDKATLTADKSSSTAYMELRSLTSEDSAVYFCARSKGSGTGDYWGQGTTVTVSS VL: DIQMTQSPASLSASVGETVTITCRASENIYIYLAWYQQKQGKTPQLLVYNGKMLAENVPSRFSGSGSGTQFSLKINSLQPEDFGSYYCQHHYGSPPAFGAGTKLELK", 1740],
  ["anti-TMEM106B antibody TM-42 (antibody, V domains shown) VH: QVQLQQSGAELAKPGASVKLSCKASGYTFTNYWMHWVKKRPGQGLEWIGYINPSSGYTKYNQKFKDKATLTADKSSNTAYMQLSSLTYEDSAVYYCTREGGSISDWYFDVWGTGTTVTVSS VL: DIVMTQAAPSLPVTPGESVSISCRSSKSLLHSNGNTYLYWFLQRPGQSPQLLIYRMSNLASGVPDRFSGSGSGTAFTLRISRVEAEDVGVYYCMQHLEYPYTFGGGTKLEIK", 215]
]}

Taken from patent US20230303681A1.
